# MEASUREMENT DESCRIPTION: Lung S9 metabolism
# Assay type: in vitro ADME, human
# CONDITIONS: lung S9 fraction, pH 7.4; human lung S9, 1 μM compound, 1 mg/mL S9 protein, NADPH and PAPS; read-out: Clearance
QUANTITY: microsomal CLint at 1 µM (µL/min/mg)

COMPOUND	QUANTITY	UNIT OF MEASUREMENT	ENDPOINT VALUE
CCCN1Cc2[nH]c(-c3n[nH]c4cc(-c5ccc(O)cc5CC)ccc34)nc2C[C@H]1C(=O)N1CCN(CCO)CC1 [Compound 1]	microsomal CLint at 1 µM	µL/min/mg	4.2
CCc1cc(O)c(F)cc1-c1ccc2c(-c3nc4c([nH]3)CN(C(C)C)[C@H](C(=O)N3CC[C@H](N(C)C)C3)C4)n[nH]c2c1 [Compound C-6, reference compound]	microsomal CLint at 1 µM	µL/min/mg	51.4
CCc1cc(O)ccc1-c1ccc2c(-c3nc4c([nH]3)CN(C)[C@H](C(=O)N3CCN(CCO)C[C@H]3C)C4)n[nH]c2c1 [Compound 5]	microsomal CLint at 1 µM	µL/min/mg	3.7
CCc1cc(O)ccc1-c1ccc2c(-c3nc4c([nH]3)CN(C(C)C)[C@H](C(=O)N3CC[C@H](N(C)C)C3)C4)n[nH]c2c1 [Compound 6]	microsomal CLint at 1 µM	µL/min/mg	3.4
CCCN1Cc2[nH]c(-c3n[nH]c4cc(-c5cc(F)c(O)cc5CC)ccc34)nc2C[C@H]1C(=O)N1C[C@@H]2C[C@H]1CN2C [Compound C-2, reference compound]	microsomal CLint at 1 µM	µL/min/mg	61
CCCN1Cc2[nH]c(-c3n[nH]c4cc(-c5ccc(O)cc5CC)ccc34)nc2C[C@H]1C(=O)N1C[C@@H]2C[C@H]1CN2C [Compound 2]	microsomal CLint at 1 µM	µL/min/mg	3.5
